- test description: yeast display, Sf9 membrane polyspecificity reagent, FACS + sequencing; frameworks hold sequencing errors
endpoint name: polyreactivity (PSR sort gate)

Example results:
QVQLVESGGGLVQAGGSLRLSCAASGITFSWNAMGRYRQAPGKERELVASITENTGCTYYADSVKGRFTISRDNAKNTVYLQMNSLKPEDTAVDYCWYTQNTLGNYWGQGTQVTVSS	low polyreactivity
QVQLVESAGGLVQAGGSLRLSCAASGFIFSRNAMGWYRQAPGKERELVAVISTSGGSTYYADSVKGRFTISRDNAKNTVYLQMNSLKPEDTAVYYCAARRTRGYEYWGKGTQVTVSS	high polyreactivity
QVQLVESGGGLVQAGGSLRLSCAASGRIFINNAMGWYRQAPGKERELVAAISSRGGSTYYADSVKGRFTISRDNAKKTVYLQMNSLKPEDTAVYYCAVDVYEPRYRRPFHHDYWGQGTQVTVSS	low polyreactivity
QVQLVESGGGLVQAGGSLRLSCAASGYTFGQNAMGWYRQAPGKEREFVAAISWSGTSTYYADSVKGRFTISRDNAKNTVYLQMNSLKPEDTALYYCAARSYRYVSRREYWGQGTQVTVSS	high polyreactivity

Next up:
Form field polyreactivity (PSR sort gate), entry QVQLVESGGGLVQAGGSLRLSCAASGRIFDGNARGWYIQAPGKERELVAAISRNGGTYYADSVKGRFTISRDNAKNTVYLQMNSLKPEDTAVYYCAADPSSVGYHVEYDYWGQGTQVTVSS : low polyreactivity

----------
- test description: yeast display, Sf9 membrane polyspecificity reagent, FACS + sequencing; frameworks hold sequencing errors
endpoint name: polyreactivity (PSR sort gate)

Example results:
QVQLVESGGGLVQAGGSLRISWAASGFTFYTYMGWYRQAPGKERELVAAISWSGDSTYYADSVKGRFTISRDNAKNTVYLQMNSLKPEDTAVYYCIADHGGSRYDYWGQGTQVTVSS	low polyreactivity
QVQLVESGGGLVQAGGSLRLSCAASGRTFRHNAMGWYRQAPGKERELVAANSSGGSTYYADSVKGRFTISRDNAKNTVYLQLYSLKREDTAVYYCAASRYRPYGGTTTDYWGQGTQLTVSS	high polyreactivity
QVQHVESGGGLVQAGVSLRLSCAASGLTFTRYAMGWDRQAPGKERELVAAISWSGGSTYYADSVKGRFTISRDNAKNTVYLQMNSLKPEDTAVYYCAAEPYKQYTGYYYSGFEFWGQGTQVTVSS	high polyreactivity
QVQLVESGGGLVQAGGSLRLSCAASGRIFYQNPMGWYRPAPGKERELVADISSGGSTYYADSVKGRFTISRDNAKNTVYLQMNSLKPEDTAGYYCNTPSGPGTVGSYRRIWYGYWGQGSQVTVSS	low polyreactivity

Next up:
Form field polyreactivity (PSR sort gate), entry QVQLHESGGGLVQSGGSLRLSCAASGTISYAGPMGWYPQAPGKEREFVAGIGVGSNTNYADSVKGRYTIIRDNAKNTVYLQMNSLKPVDTAVYYCAVGGYAPLGRPYCGQGTQVTVSS : low polyreactivity

----------
- test description: yeast display, Sf9 membrane polyspecificity reagent, FACS + sequencing; frameworks hold sequencing errors
endpoint name: polyreactivity (PSR sort gate)

QVQLVESGGGLVQAGGSLRLSCAASGRIFIRNAMGWYRQAPGKERELVAAITQSGGSTYYADSVKGRFSISRVYAKNTVYLQMNSLKPEDTAVYYCNAVRYNCVGYDYWGQGTQVTVSS	high polyreactivity
QDQLVESGGGLVQAGGSLRLSCAASGRIFIVYAMGWYRQAPGKERELDAAISRNGGRTYYADSVKGRFTISRDNAKNSVDLQMNSLKPEDTSVYYCNSVALYPYTTYDYWGQGSQVTVSS	high polyreactivity
QVQLVESGGGLVQAGGSLRLSCAASGFTFKYYTMGWYRHAPGKETELDAVITRSGGSTYADSVKGRFTISRDNAKNTVYLQMNSLKPVDTAVYYCAKGAAGINLVRHDYWGQVTQVTVSS	high polyreactivity

Where these numbers come from: the nanobody polyreactivity screen of Harvey et al. (2022)
